molecular target: PRMT1 (Homo sapiens); assay: SAHH-coupled fluorescence assay, PRMT1 inhibition; format: biochemical; settings: calculated as Ki, app = IC50/(1 + [S]/Km); read-out: Ki, app
Sequence (Q99873 whole entry, species assumed): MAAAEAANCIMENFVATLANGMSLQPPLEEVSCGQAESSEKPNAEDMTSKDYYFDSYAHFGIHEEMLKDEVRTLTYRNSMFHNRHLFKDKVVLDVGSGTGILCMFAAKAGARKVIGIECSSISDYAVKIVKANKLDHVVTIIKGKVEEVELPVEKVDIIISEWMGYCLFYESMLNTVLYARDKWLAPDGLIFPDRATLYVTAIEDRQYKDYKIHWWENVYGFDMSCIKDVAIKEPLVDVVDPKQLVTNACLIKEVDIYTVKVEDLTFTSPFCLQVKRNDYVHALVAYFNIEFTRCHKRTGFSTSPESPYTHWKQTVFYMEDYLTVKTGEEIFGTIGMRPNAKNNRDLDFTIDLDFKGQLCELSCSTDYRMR
pKi: −log10 of the molar value.
Test readout: pKi

Here N=C(NCCCSC[C@H]1O[C@@H](n2cnc3c(N)ncnc32)[C@H](O)[C@@H]1O)NCc1ccc(Br)cc1 [Compound 6n] was tested on PRMT1 (Homo sapiens), and its pKi came to 7.28

Here N=C(NCCCSC[C@H]1O[C@@H](n2cnc3c(N)ncnc32)[C@H](O)[C@@H]1O)NC1CCC1 [Compound 6b] was tested on PRMT1 (Homo sapiens), and its pKi came to 7.35

(a) N=C(NCCCSC[C@H]1O[C@@H](n2cnc3c(N)ncnc32)[C@H](O)[C@@H]1O)Nc1ccc(Br)cc1 [Compound 6m]
(b) N=C(NCCCSC[C@H]1O[C@@H](n2cnc3c(N)ncnc32)[C@H](O)[C@@H]1O)NCc1ccccc1 [Compound 6g]
(c) N=C(NCCCSC[C@H]1O[C@@H](n2cnc3c(N)ncnc32)[C@H](O)[C@@H]1O)Nc1ccccc1[N+](=O)[O-] [Compound 6j]
Exam item: List from greatest to least pKi. Ranked list of labels, please, in the requested order.
Marked response: a, c, b

(P) N=C(NCCCSC[C@H]1O[C@@H](n2cnc3c(N)ncnc32)[C@H](O)[C@@H]1O)NCCc1ccccc1 [Compound 6h]
(Q) N=C(NCCCSC[C@H]1O[C@@H](n2cnc3c(N)ncnc32)[C@H](O)[C@@H]1O)NCC1CCCCC1 [Compound 6e]
(R) CCNC(=N)NCCCSC[C@H]1O[C@@H](n2cnc3c(N)ncnc32)[C@H](O)[C@@H]1O [Compound 6a]
Exam item: Rank ascending by pKi. Ranked list of labels, please, in the requested order.
Marked response: R, P, Q

(1) N=C(NCCCSC[C@H]1O[C@@H](n2cnc3c(N)ncnc32)[C@H](O)[C@@H]1O)Nc1ccccc1 [Compound 6f]
(2) N=C(NCCCSC[C@H]1O[C@@H](n2cnc3c(N)ncnc32)[C@H](O)[C@@H]1O)NC1CCCCC1 [Compound 6d]
Exam item: Select one: 1 or 2 . Criterion: greater recorded pKi. Field: selected label. Fill in the label of the entry you choose.
Marked response: 2
(2: 7.26, 1: 6.82)
